What kon was measured for each of the following?
# assay-target: T1, human CTGF (antigen of the Biacore assays) (human, UniProt P29279 27-349)
# T1 construct: also called antigen human CTGF; human CTGF protein
# T1 sequence (looked up): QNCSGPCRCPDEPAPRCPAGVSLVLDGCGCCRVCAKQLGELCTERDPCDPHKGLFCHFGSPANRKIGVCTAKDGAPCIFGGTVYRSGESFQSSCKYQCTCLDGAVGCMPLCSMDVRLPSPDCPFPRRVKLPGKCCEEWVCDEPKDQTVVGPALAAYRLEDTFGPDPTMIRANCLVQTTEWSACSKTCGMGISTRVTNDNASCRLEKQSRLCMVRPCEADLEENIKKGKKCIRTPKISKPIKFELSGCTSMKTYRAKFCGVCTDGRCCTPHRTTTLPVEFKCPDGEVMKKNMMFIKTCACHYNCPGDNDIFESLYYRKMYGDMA
# method-notes: Biacore, antibody captured on Protein A, CTGF in flow, 1:1 fit
Numbers only, in M⁻¹ s⁻¹.

Would you please look over these solved cases?
1. Hu147-14wk (antibody, human IgG1, kappa, V domains shown) VH: EVQLVESGGGLVQPGGSLRLSCAASGFTFSTYAMNWVRQAPGKGLEWVGRIRTKSNNYATYYADSVKDRFTISRDDSKNSLYLQMNSLKTEDTAVYYCVETGFAYWDQGTLVTVSS VL: DIQMTQSPSSLSASVGDRVTITCSASSSVSYMHWFQQKPGKSPKLLIYSTSNLASGVPSRFSGSGSGTDYTLTISSLQPEDFATYYCQQRSSYPLTFGQGTKLEIKR: 4.89e+07
2. chimeric antibody Ch164 (antibody, human IgG1, lambda, V domains shown) VH: QVQLKQSGPGLVQPSQSLSITCTVSGFSLTTFGVHWIRQSPGKGLEWLGVIWRRGGTDYNAAFMSRLSITKDNSRSHVFFKMTSLQTDDSAIYYCARDGGFDYWGQGTTLTVSS VL: QAVVTQESALTTSPGGTVILTCRSSIGAVTTSNYANWVQEKPDHLFTGLIGGTSNRAPGVPVRFSGSLIGDKAALTITGAQAEDDAMYFCALWYSTHYVFGGGTKVTVLG: 6.62e+07
3. Hu164-77wl (antibody, human IgG1, lambda, V domains shown) VH: EVQLQESGPGLVKPSQTLSLTCTVSGFSISTFGVHWIRQHPGKGLEWIGVIWRRGGTDYNAAFMSRVTISKDTSKNQVSLKLSSVTAADTAVYYCARDGGFDYWGQGTTVTVSS VL: ETVVTQEPSLTVSPGGTVTLTCRSSIGAVTTSNYANWVQQKPGQAFRGLIGGTSNRAPWTPARFSGSLLGGKAALTLSGVQPEDEAEYYCALWYSTHYVFGGGTKLTVLG: 5.15e+07
4. Hu164-57wl (antibody, human IgG1, lambda, V domains shown) VH: EVTLKESGPVLVKPTETLTLTCTVSGFSLSTFGVHWIRQPPGKALEWLAVIWRRGGTDYNAAFMSRLTISKDTSKSQVVLTMTNMDPVDTATYYCARDGGFDYWGQGTTVTVSS VL: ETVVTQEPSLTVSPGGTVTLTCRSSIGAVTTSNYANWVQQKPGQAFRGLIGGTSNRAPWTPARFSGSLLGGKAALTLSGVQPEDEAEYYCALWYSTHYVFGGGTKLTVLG: 4.26e+07

Could you please provide reported kon for Hu147-34wk (antibody, human IgG1, kappa, V domains shown) VH: EVQLVESGGGLVQPGGSLRLSCAASGFSFNTYAMNWVRQAPGKGLEWVARIRTKSNNYATYYADSVKDRFTISRDDSESSLYLQMNSLKTEDTAVYYCVETGFAYWDQGTLVTVSS VL: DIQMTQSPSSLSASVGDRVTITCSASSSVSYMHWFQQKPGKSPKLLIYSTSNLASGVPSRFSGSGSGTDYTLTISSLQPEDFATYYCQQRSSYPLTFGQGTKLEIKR ? Thanks!
1.47e+07
